Tested on: HSC2 (primary human Schwann cells)
Test: drug sensitivity score (DSS, CellTiter-Glo viability, 72 h) (DSS (dimensionless)); higher = more sensitive; extreme values may be limits of the assay
I'd appreciate it if you could supply drug sensitivity score values for the items below.
Give bare numbers.

Check out these entries, answers already filled in.
COMPOUND	drug sensitivity score
C[C@@H](Oc1cc(-c2cnn(C3CCNCC3)c2)cnc1N)c1c(Cl)ccc(F)c1Cl [Crizotinib] (max concentration tested 1000 nM)	1.21
CC[C@H](CC#N)OC(=O)N[C@@H](C)c1cccc(NC(=O)Nc2ccc(-c3cnco3)c(OC)c2)c1 [AVN944] (max concentration tested 10000 nM)	20
Cc1cc(C(C)Nc2ccccc2)c2nc(N3CCOCC3)cc(=O)n2c1 (stereo unspecified) [TGX-221] (max concentration tested 10000 nM)	0
CN(Cc1cnc2nc(N)nc(N)c2n1)c1ccc(C(=O)N[C@@H](CCC(=O)O)C(=O)O)cc1 [Methotrexate] (max concentration tested 5000 nM)	0.0797
Cc1[nH]c2ccccc2c1CCNCc1ccc(/C=C/C(=O)NO)cc1 [Panobinostat] (max concentration tested 1000 nM)	16.7

# ---- query compound ----
-- ask Consider the compound COc1cc([C@@H]2c3cc4c(cc3[C@@H](O[C@@H]3O[C@@H]5CO[C@@H](c6cccs6)O[C@H]5[C@H](O)[C@H]3O)[C@H]3COC(=O)[C@H]23)OCO4)cc(OC)c1O [Teniposide] (max concentration tested 10000 nM) and give its measured drug sensitivity score.
-- reply 22.8

* * *

System: HS-PSS
Test: relative IC50 (inflection point of fitted dose-response curve, CellTiter-Glo viability, 72 h; top asymptote may be below 50% inhibition); higher = less potent
I'd appreciate it if you could supply relative IC50 values for the items below.

MOLECULE	relative IC50
Nc1nc(N)c2nc(-c3cccc(O)c3)c(-c3cccc(O)c3)nc2n1	> 10 µM
Nc1nc2[nH]cc(CCc3ccc(C(=O)N[C@@H](CCC(=O)O)C(=O)O)cc3)c2c(=O)[nH]1	> 10 µM
Cn1ncc(Cl)c1-c1cc(C(=O)N[C@H](CN)Cc2ccc(F)c(F)c2)oc1Cl	> 10 µM
CCS(=O)(=O)N1CC(CC#N)(n2cc(-c3ncnc4[nH]ccc34)cn2)C1	> 2.5 µM
CCCC(CCC)C(=O)O	> 1000 µM

For the 5 molecules below, give their relative IC50 values.
1. O=C(O)c1ccc(CN2CCC(CN[C@@H]3C[C@H]3c3ccccc3)CC2)cc1
2. O=C(c1ccc(F)c(F)c1Nc1ccc(I)cc1F)N1CC(O)([C@@H]2CCCCN2)C1
3. CCn1c(C(=O)N(C2CC2)C2CC2)cc2c3c(ncn3C)c(Nc3cc(C)n(C)n3)nc21
4. CNC(=O)c1ccc(-c2cnc3ncc(Cc4ccc5ncccc5c4)n3n2)cc1F
5. Nc1ncnc2c1nc(Cl)n2[C@@H]1O[C@H](CO)[C@@H](O)[C@H]1O

-- reply
["> 10 µM", "0.159 µM", "> 10 µM", "> 1 µM", "6.59 µM"]

For the 3 molecules below, give their relative IC50 values.
1. Clc1ccc(C(c2ccccc2Cl)C(Cl)Cl)cc1 (centres undefined)
2. C[C@]12CC[C@H](O)CC1=CC[C@@H]1[C@@H]2CC[C@]2(C)C(c3cccnc3)=CC[C@@H]12
3. CCN(CC)CCOc1ccc(/C(=C(/Cl)c2ccccc2)c2ccccc2)cc1

-- reply
["> 10 µM", "> 5 µM", "2.29 µM"]

For the 6 molecules below, give their relative IC50 values.
1. CCCCCOC(=O)Nc1nc(=O)n([C@@H]2O[C@H](C)[C@@H](O)[C@H]2O)cc1F
2. COc1cccc2c1C(=O)c1c(O)c3c(c(O)c1C2=O)C[C@@](O)(C(C)=O)C[C@@H]3O[C@H]1C[C@H](N)[C@H](O)[C@H](C)O1
3. COc1cc([C@@H]2c3cc4c(cc3[C@@H](O[C@@H]3O[C@@H]5CO[C@@H](C)O[C@H]5[C@H](O)[C@H]3O)[C@H]3COC(=O)[C@H]23)OCO4)cc(OC)c1O [Etoposide]
4. CN1CCc2c(c3ccccc3n2Cc2ccc(C(=O)NO)cc2)C1
5. CNC(=O)c1cc(Oc2ccc(NC(=O)Nc3cc(C(C)(C)C)nn3-c3ccc4ncccc4c3)c(F)c2)ccn1
6. CN(c1ncccc1CNc1nc(Nc2ccc3c(c2)CC(=O)N3)ncc1C(F)(F)F)S(C)(=O)=O

-- reply
1. > 10 µM
2. 0.122 µM
3. 1.3 µM
4. 3.01 µM
5. > 1 µM
6. 3.34 µM
